IC50 values, listed per item
- tested-target: Norepinephrine transporter (Rattus norvegicus, UniProt Q9WTR4)
- Sequence (Q9WTR4 whole entry): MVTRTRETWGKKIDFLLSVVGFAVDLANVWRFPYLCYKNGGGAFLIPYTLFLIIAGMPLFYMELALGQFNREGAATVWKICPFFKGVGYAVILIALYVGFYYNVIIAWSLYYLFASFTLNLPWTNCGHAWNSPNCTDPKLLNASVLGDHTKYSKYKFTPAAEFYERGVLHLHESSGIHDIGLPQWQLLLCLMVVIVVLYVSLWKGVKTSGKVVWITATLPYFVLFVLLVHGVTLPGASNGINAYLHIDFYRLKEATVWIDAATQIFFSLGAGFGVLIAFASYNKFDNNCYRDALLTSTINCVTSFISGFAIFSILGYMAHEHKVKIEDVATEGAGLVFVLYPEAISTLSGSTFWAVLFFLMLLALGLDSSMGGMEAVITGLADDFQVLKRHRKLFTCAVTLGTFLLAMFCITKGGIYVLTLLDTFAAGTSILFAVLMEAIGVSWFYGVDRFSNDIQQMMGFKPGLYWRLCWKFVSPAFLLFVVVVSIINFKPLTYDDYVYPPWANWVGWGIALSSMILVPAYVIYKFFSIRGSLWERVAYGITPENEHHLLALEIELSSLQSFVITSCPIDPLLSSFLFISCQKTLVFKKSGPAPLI
- assay-explanation: Inhibition of norepinephrine uptake in synaptosomal preparation fro rat hypothalamus, using [3H]norepinephrine
Numeric answer only, unit nM assumed.

Some molecules with recorded IC50:
N[C@H]1CC[C@@H](c2ccc(Cl)c(Cl)c2)c2ccccc21	250
CN[C@H]1CC[C@@H](c2cccc(C(F)(F)F)c2)c2ccccc21 (stereo in doubt; 56)	2700
CN[C@H]1CC[C@@H](c2cccc(C(F)(F)F)c2)c2ccccc21 (stereo in doubt; 57)	7800

Form field: reported IC50 of CN[C@H]1CC[C@@H](c2ccccc2)c2ccccc21 (stereo in doubt; 50)
1800

Form field: reported IC50 of `CN[C@H]1CC[C@@H](c2ccc(F)c(OC)c2)c2ccccc21`
3300

Form field: reported IC50 of `N[C@H]1CC[C@@H](c2ccc(C(F)(F)F)cc2)c2ccccc21`
7500

Form field: reported IC50 of `CN(C)[C@@H]1CC[C@@H](c2ccc(C(F)(F)F)cc2)c2ccccc21`
4700

Form field: reported IC50 of `CN[C@@H]1CC[C@@H](c2ccc(Br)cc2)c2ccccc21`
30

Form field: reported IC50 of `CN(C)[C@H]1CC[C@@H](c2ccccc2)c2ccccc21`
310

Form field: reported IC50 of `CN(C)[C@@H]1CC[C@@H](c2ccccc2)c2ccccc21`
140

Form field: reported IC50 of `CN(C)[C@H]1CC[C@@H](c2ccc(Cl)cc2)c2ccccc21`
1160
